test system: Rattus norvegicus; test: Duration of inhibition of AII pressor response no longer observed in conscious normotensive rats at 1 mg/Kg i.v.; format: functional
Quick rule for you: Duration under 0.5 h gets True, anything else gets False.

Does this compound meet the criterion Duration < 0.5 h? CCCCc1nn(-c2ccccc2C)c(=O)n1Cc1ccc(-c2ccccc2-c2nn[nH]n2)cc1
False

Does this compound meet the criterion Duration < 0.5 h? CCCCc1nn(CC(C)(C)C)c(=O)n1Cc1ccc(-c2ccccc2-c2nn[nH]n2)cc1
False

Does this compound meet the criterion Duration < 0.5 h? CCCCc1nn(-c2ccccc2C(C)C)c(=O)n1Cc1ccc(-c2ccccc2-c2nn[nH]n2)cc1
False

Does this compound meet the criterion Duration < 0.5 h? CCCCc1nn(-c2ccccc2C(F)(F)F)c(=O)n1Cc1ccc(-c2ccccc2-c2nn[nH]n2)cc1
False

Does this compound meet the criterion Duration < 0.5 h? CCCCc1nn(CC(C)C)c(=O)n1Cc1ccc(-c2ccccc2-c2nn[nH]n2)cc1
False

Does this compound meet the criterion Duration < 0.5 h? CCCCc1nn(-c2ccccc2[N+](=O)[O-])c(=O)n1Cc1ccc(-c2ccccc2-c2nn[nH]n2)cc1
False

Does this compound meet the criterion Duration < 0.5 h? CCCCc1nn(C(C)CO)c(=O)n1Cc1ccc(-c2ccccc2-c2nn[nH]n2)cc1 (stereo unspecified)
False

Does this compound meet the criterion Duration < 0.5 h? CCCCc1nn(-c2ccc(OC)cc2)c(=O)n1Cc1ccc(-c2ccccc2-c2nn[nH]n2)cc1
True

Does this compound meet the criterion Duration < 0.5 h? CCCCc1nn(CCC)c(=O)n1Cc1ccc(-c2ccccc2-c2nn[nH]n2)cc1
True

Does this compound meet the criterion Duration < 0.5 h? CCCCc1nn(-c2ccccc2N(C)C)c(=O)n1Cc1ccc(-c2ccccc2-c2nn[nH]n2)cc1
True

Does this compound meet the criterion Duration < 0.5 h? CCCCc1nn(C(C)C)c(=O)n1Cc1ccc(-c2ccccc2-c2nn[nH]n2)cc1
False

Does this compound meet the criterion Duration < 0.5 h? CCCCc1nn(C(C)C(=O)O)c(=O)n1Cc1ccc(-c2ccccc2-c2nn[nH]n2)cc1 (stereo unspecified)
False

Does this compound meet the criterion Duration < 0.5 h? CCCCc1nn(Cc2ccccc2)c(=O)n1Cc1ccc(-c2ccccc2-c2nn[nH]n2)cc1
True

Does this compound meet the criterion Duration < 0.5 h? CCCCc1nc(Cl)c(CO)n1Cc1ccc(-c2ccccc2-c2nnn[nH]2)cc1
False

* * *

system: Rattus norvegicus; experiment: Inhibition of AII pressor response expressed as peak inhibition in conscious normotensive rats at 1 mg/Kg p.o.; format: functional; details: po
readout_name: inhibition in vivo at 1 mg/kg (%)
Reply with just the number (in %).

For the compound CCCCc1nn(-c2ccccc2C(C)C)c(=O)n1Cc1ccc(-c2ccccc2-c2nn[nH]n2)cc1 , give its reported inhibition in vivo at 1 mg/kg.
22

For the compound CCCCc1nn(C(C)C(=O)O)c(=O)n1Cc1ccc(-c2ccccc2-c2nn[nH]n2)cc1 (centres undefined) , give its reported inhibition in vivo at 1 mg/kg.
62

For the compound CCCCc1nn(-c2ccccc2Cl)c(=O)n1Cc1ccc(-c2ccccc2-c2nn[nH]n2)cc1 , give its reported inhibition in vivo at 1 mg/kg.
34

For the compound CCCCc1nn(CC(C)(C)C)c(=O)n1Cc1ccc(-c2ccccc2-c2nn[nH]n2)cc1 , give its reported inhibition in vivo at 1 mg/kg.
53

For the compound CCCCc1nc(Cl)c(CO)n1Cc1ccc(-c2ccccc2-c2nnn[nH]2)cc1 , give its reported inhibition in vivo at 1 mg/kg.
58

For the compound CCCCc1nn(-c2ccccc2C(F)(F)F)c(=O)n1Cc1ccc(-c2ccccc2-c2nn[nH]n2)cc1 , give its reported inhibition in vivo at 1 mg/kg.
66

For the compound CCCCc1nc(Cl)c(C(=O)O)n1Cc1ccc(-c2ccccc2-c2nn[nH]n2)cc1 [CARBOXYLIC ACID METABOLITE] , give its reported inhibition in vivo at 1 mg/kg.
72

For the compound CCCCc1nn(C(C)C)c(=O)n1Cc1ccc(-c2ccccc2-c2nn[nH]n2)cc1 , give its reported inhibition in vivo at 1 mg/kg.
20

For the compound CCCCc1nn(-c2ccccc2[N+](=O)[O-])c(=O)n1Cc1ccc(-c2ccccc2-c2nn[nH]n2)cc1 , give its reported inhibition in vivo at 1 mg/kg.
63
